Numbers sourced from PubChem BioAssay.

Assay: differential killing of epithelial or mesenchymal cells, primary screen, imaging, PC-3E GFP, TEM4-18 mCherry, co-culture (AID 1345086);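 also: cells exposed to compound for 72 h before imaging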
Conditions: imaging cell counts, measured here: mesenchymal TEM4-18 mCherry cell survival, at 1 µM
Quantity Name: normalised cell number
A bare number is all that is needed in reply.

Ask: Given the entry COc1cc(OC)c2c(c1)OC(c1ccccc1)CC2=O (stereo not given) , report its measured normalised cell number.
Reply: 1.08

Ask: Given the entry COc1cc(OC)c2c(=O)c(O)c(-c3ccc(OC)c(OC)c3)oc2c1 , report its measured normalised cell number.
Reply: 1.02

Ask: Given the entry CN1CC(=O)N2[C@H](c3ccc4c(c3)OCO4)c3[nH]c4ccccc4c3C[C@@H]2C1=O , report its measured normalised cell number.
Reply: 1.07

Ask: Given the entry CC(=O)Oc1ccc2c(c1)CCC1C2CC[C@]2(C)C(=O)CCC12 (stereo not given in full) , report its measured normalised cell number.
Reply: 1.03

Ask: Given the entry COc1cc(C(=O)O)cc(C)c1C(=O)CC(C)O (stereo not given) , report its measured normalised cell number.
Reply: 0.94

Ask: Given the entry CN(C(=O)Cc1ccccc1)C1C(O[C@@H]2OC(COS(=O)(=O)O)C(NC(=O)Cc3ccccc3)[C@H](OS(=O)(=O)O)[C@H]2OS(=O)(=O)O)OC2C[C@@H](NC(=O)Cc3ccccc3)[C@@H](OC3C(NC(=O)Cc4ccccc4)C[C@@H](NC(=O)Cc4ccccc4)[C@H](OS(=O)(=O)O)[C@H]3OS(=O)(=O)O)OC2C1OS(=O)(=O)O (stereo not given in full) , report its measured normalised cell number.
Reply: 0.99

Ask: Given the entry O=c1[nH]c(=O)n([C@H]2C[C@H](O)C(CO)O2)cc1I (stereo not given in full) , report its measured normalised cell number.
Reply: 1.07

Ask: Given the entry COc1cc(N)cc(OC)c1 , report its measured normalised cell number.
Reply: 0.91

Ask: Given the entry CC(O)CC(C)(C)O (stereo not given) , report its measured normalised cell number.
Reply: 0.94

Ask: Given the entry O=C(O)C1=CC(=C(c2ccc(O)c(C(=O)O)c2)c2ccc(O)c(C(=O)O)c2)C=CC1=O , report its measured normalised cell number.
Reply: 1.31

Ask: Given the entry CC(=O)NC1[C@@H](O)C2OC(c3ccccc3)OCC2O[C@H]1Sc1ccccc1 (stereo not given in full) , report its measured normalised cell number.
Reply: 1.09

Ask: Given the entry C[C@]12CCC3c4ccc(O)cc4CCC3C1CC[C@@H]2OC(=O)CCC1CCCC1 (stereo not given in full) , report its measured normalised cell number.
Reply: 1.27

Ask: Given the entry COc1ccc2c(c1)OCC(Cc1ccc(O)c(OC)c1)C2=O (stereo not given) , report its measured normalised cell number.
Reply: 0.96

Ask: Given the entry CC(=O)OCC(=O)[C@@]1(O)CCC2C3CCC4=CC(=O)CC[C@]4(C)[C@@]3(F)[C@@H](O)C[C@@]21C (stereo not given in full) , report its measured normalised cell number.
Reply: 1.34

Ask: Given the entry C=C(C)C1CC=C(C)CC1 (stereo not given) , report its measured normalised cell number.
Reply: 0.96

Ask: Given the entry CC(=O)Oc1ccc2c(c1)CCC1C2CC[C@@]2(C)C1CC[C@@H]2OC(C)=O (stereo not given in full) , report its measured normalised cell number.
Reply: 1.12

Ask: Given the entry CC1(C)C[C@@H]2C(=O)CC[C@@H]3O[C@]3(C)CC[C@H]21 , report its measured normalised cell number.
Reply: 0.85

Ask: Given the entry C[C@H]1CC2C([C@@H](O)C[C@@]3(C)C2CC[C@]3(O)C(=O)COC(=O)CCC(=O)O)[C@@]2(C)C=CC(=O)C=C12 (stereo not given in full) , report its measured normalised cell number.
Reply: 1.04

Ask: Given the entry N=C(N)SCCN , report its measured normalised cell number.
Reply: 0.98

Ask: Given the entry CC(=O)C(C)(C)[C@H]1OC2CC[C@@]3(C)[C@@](O)(CC[C@H]4Cc5c([nH]c6ccccc56)[C@@]43C)C2=CC1=O (stereo not given in full) , report its measured normalised cell number.
Reply: 1
